// provenance: patent US7772271B2

Below is a list of entries, each paired with its recorded melting point value.

# count of solved cases: 6
stdin: Would you kindly share the measured melting point for CC(NC(=O)Nc1ccc(-c2c(C#N)c3ccc(OC4CCOCC4)cc3n2C2CC2)cc1)c1ccc(F)cc1 (stereo not drawn) ?
stdout: 189 to 192 °C

stdin: melting point lookup needed for COCCOc1ccc2c(C#N)c(-c3ccc(NC(=O)Oc4ccc(Cl)cc4)cc3)n(C3CCC3)c2c1 , thanks.
stdout: 182 to 183 °C

stdin: What value of melting point has been recorded for this entry: Cc1csc(Nc2ccc(-c3c(C#N)c4ccc(OCCF)cc4n3C3CCC3)cc2)n1
stdout: 199 to 201 °C

stdin: I have this compound here, C[C@@H](OC(=O)Nc1ccc(-c2c(C#N)c3ccc(-c4ccccn4)cc3n2C2CCC2)cc1Cl)C(F)(F)F , and I need its recorded melting point.
stdout: 84 to 94 °C

stdin: For CC1CCN(C(=O)c2ccc3c(C#N)c(-c4ccc(NC(=O)O[C@H](C)C5CC5)cc4)n(C4CCC4)c3c2)CC1 , what is its reported melting point?
stdout: 150 to 153 °C

stdin: Which melting point is reported for this compound? C[C@@H](OC(=O)Nc1ccc(-c2c(C#N)c3ccc(C(=O)O)cc3n2C2CCC2)cc1)C1CC1
stdout: 222 to 225 °C

***
stdin: Using the record for CC(C)S(=O)(=O)Nc1ccc(-c2c(C#N)c3ccc(OC(F)F)cc3n2CC2CCCO2)cc1 (stereo not drawn) , report its melting point.
stdout: 173 to 176 °C

stdin: Bench note: what melting point did CCOc1ccc2c(C#N)c(-c3ccc(C(=O)N4CC[C@@H](O)C4)cc3)n(C3CCC3)c2c1 show?
stdout: 172 to 173 °C

stdin: // returns reported melting point for input CC(C)n1c(-c2ccc(NC(=O)O[C@H](C)C3CC3)cc2)c(C#N)c2ccc(O[C@@H]3CCOC3)cc21
stdout: 151 to 153 °C

stdin: Look at this compound and give its reported melting point. CCCS(=O)(=O)Nc1ccc(-c2c(C#N)c3ccc(Oc4nccc(C)n4)cc3n2CC2CC2)c(C)c1
stdout: 167 to 170 °C

stdin: Which melting point reading was recorded for the compound CCSc1ccc2c(C#N)c(-c3ccc(NC(=O)OC(C)C)cc3)n(C3CCC3)c2c1 ?
stdout: 150 to 152 °C
